Reference source: the supplement of paper PMC6755084

system: F1*sub RNA substrate (template-directed ligation); assay: fraction ligated after 30 min (ligated reads / total reads); higher = more ligase activity; sequences stand for … in GAGACCGCAACTGAAAAGTTGT…AGTTCTGCACGTAGAAGCAAAAGGC; conditions: 42 °C
readoutType: fraction ligated
Just the number, please, no unit attached.

Below, 10 sequences whose answers are already recorded.
INSERT INTO assay_data (sequencecode, assaysystem, readouttype, readoutvalue) VALUES
  ('TATCACTTTCGTAAGACATTTGGAGGGTTGA [3d1557]', 'F1*sub RNA substrate (template-directed ligation)', 'fraction ligated', 0.0972),
  ('ATCACTTGTCGTAGACACTTTGGTGGGTTGA [3d206]', 'F1*sub RNA substrate (template-directed ligation)', 'fraction ligated', 0.0928),
  ('TATCACTTGTCGAGACACTTTGGATGGGTTA [3d1913]', 'F1*sub RNA substrate (template-directed ligation)', 'fraction ligated', 0.765),
  ('ATCACTTGTCGTAAGAACTTTGGATGGGTTG [3d238]', 'F1*sub RNA substrate (template-directed ligation)', 'fraction ligated', 0.794),
  ('TATCACTTGTCGAAGACACTTGGATGGTTGA [3d1961]', 'F1*sub RNA substrate (template-directed ligation)', 'fraction ligated', 0.106),
  ('TTCACTTGTCGTAAGACCTTTGGATGGGTTA [3d475]', 'F1*sub RNA substrate (template-directed ligation)', 'fraction ligated', 0.347),
  ('TACCTTGTCGTAAGACACTTGGATGGGTTGA [3d540]', 'F1*sub RNA substrate (template-directed ligation)', 'fraction ligated', 0.746),
  ('TATCACTTGTCGTGCACTTTGGATGGGTTGA [3d1982]', 'F1*sub RNA substrate (template-directed ligation)', 'fraction ligated', 0.783),
  ('TATCATGTCGTAAGACACTTTGGATGGGTTA [3d1138]', 'F1*sub RNA substrate (template-directed ligation)', 'fraction ligated', 0.641),
  ('TATCATTGTCGTAAGACATTTGGTGGGTTGA [3d1264]', 'F1*sub RNA substrate (template-directed ligation)', 'fraction ligated', 0.421);

[in] Please look up its fraction ligated: TATCACTTGCGTAAGACATTGGATGGGTTGA [3d1674]
[out] 0.802
